This collection of values is drawn from ChEMBL document CHEMBL3865801.

Field: selectivity ratio. Provide a value for each of the molecules that follow.
System: ABCG2
Test: Therapeutic ratio of IG50 for human HEK293 cells to EC50 for ABCG2 (unknown origin) expressed in HEK293 cells
Assay type: ADME, cell-based
Settings: HEK293 cells and HEK293 cells expressing ABCG2, read-out: TI

Look up selectivity ratio for this molecule: `COc1ccc2[nH]cc(CCNC(=O)c3cc(=O)c4c(OCc5ccccc5Br)cccc4o3)c2c1`
> 1160

Look up selectivity ratio for this molecule: `O=C(NCCc1c[nH]c2ccccc12)c1cc(=O)c2c(OCc3ccc(Br)cc3)cccc2o1`
> 95

Look up selectivity ratio for this molecule: COc1ccc2[nH]cc(CCNC(=O)C(NC(=O)c3cc(=O)c4c(OCc5ccc(Br)cc5)cccc4o3)C(C)C)c2c1 (centres undefined)
22

Look up selectivity ratio for this molecule: `CCCOc1ccc2[nH]cc(CCNC(=O)c3cc(=O)c4c(OCc5ccc(Br)cc5)cccc4o3)c2c1`
> 214

Look up selectivity ratio for this molecule: `COc1ccc2[nH]cc(CCNC(=O)c3cc(=O)c4c(OCc5cccc(F)c5)cccc4o3)c2c1`
> 263

Look up selectivity ratio for this molecule: COc1ccc2[nH]cc(CCNC(=O)C(CC(C)C)NC(=O)c3cc(=O)c4c(OCc5ccc(Br)cc5)cccc4o3)c2c1 (centres undefined)
> 110

Look up selectivity ratio for this molecule: `O=C(NCCc1c[nH]c2ccc(O)cc12)c1cc(=O)c2c(OCc3ccc(Br)cc3)cccc2o1`
14

Look up selectivity ratio for this molecule: `COc1ccc2[nH]cc(CCNC(=O)c3cc(=O)c4c(OCc5ccc(Br)cc5)cccc4o3)c2c1`
> 385

Look up selectivity ratio for this molecule: `COc1ccc2[nH]cc(CCNC(=O)c3cc(=O)c4c(OCc5ccc(F)cc5)cccc4o3)c2c1`
> 385

Look up selectivity ratio for this molecule: `CCOc1ccc2[nH]cc(CCNC(=O)c3cc(=O)c4c(OCc5ccc(Br)cc5)cccc4o3)c2c1`
> 222

Look up selectivity ratio for this molecule: `COc1ccc2[nH]cc(CCNC(=O)c3cc(=O)c4c(OCc5ccccc5F)cccc4o3)c2c1`
171

Look up selectivity ratio for this molecule: `COc1ccc2[nH]cc(CCNC(=O)c3cc(=O)c4c(OCc5ccc(F)c(F)c5)cccc4o3)c2c1`
16

Look up selectivity ratio for this molecule: `COc1ccc2[nH]cc(CCNC(=O)c3cc(=O)c4c(OCc5cccc(Br)c5)cccc4o3)c2c1`
> 185

Look up selectivity ratio for this molecule: `CC(C)Oc1ccc2[nH]cc(CCNC(=O)c3cc(=O)c4c(OCc5ccc(Br)cc5)cccc4o3)c2c1`
> 278
